Provide the reported concentration at 3 h of each item.
Assay: Drug level in Tg2576 mouse plasma at 200 µmol/kg, po after 3 hrs

CN(C)c1ccc(CN([C@@H]2CCCCNC2=O)S(=O)(=O)c2ccc(Cl)cc2)cc1 :: 1600 nM

Now consider the entry below.
## Input I have this compound here, COc1ccc(CN([C@@H]2CCCCNC2=O)S(=O)(=O)c2ccc(Cl)cc2)cc1 , and I need its recorded concentration at 3 h.
## Output 280 nM

* * *

Can you tell me concentration at 3 h for the items I'm about to list?
Assay: Drug level in Tg2576 mouse brain at 200 µmol/kg, po after 3 hrs
Settings: read-out: Drug uptake
Give bare numbers, in µM.

For the 2 compounds below, give their concentration at 3 h values.
1. COc1ccc(CN([C@@H]2CCCCNC2=O)S(=O)(=O)c2ccc(Cl)cc2)cc1
2. CN(C)c1ccc(CN([C@@H]2CCCCNC2=O)S(=O)(=O)c2ccc(Cl)cc2)cc1

## Output
1. 2.2
2. 4.2

* * *

Assay: Ratio of drug level in brain to plasma in Tg2576 mouse at 200 mg/kg, po after 3 hrs
parameter: Kp at 3 h
Give bare numbers.

COc1ccc(CN([C@@H]2CCCCNC2=O)S(=O)(=O)c2ccc(Cl)cc2)cc1 :: 7

Query compound follows.
## Input # lookup: Kp at 3 h of CN(C)c1ccc(CN([C@@H]2CCCCNC2=O)S(=O)(=O)c2ccc(Cl)cc2)cc1
## Output 2.8
